- Test system: S. typhimurium/E. coli reverse mutation, colony counts
- test.summary: Bacterial reverse mutation test (aka Ames test) summary data
- Text: The Ames test uses bacteria cultures to determine whether a substance causes mutations. Because there is a significant overlap between substances that are mutagens and those that are carcinogens, a quick and inexpensive mutagenicity test is useful as an initial screening for possible carcinogens. The Ames test relies on specific strains of S. typhimurium, namely: TA97, TA98, TA100, TA102, TA104, TA1535, TA1537, and TA1538. […]
Records with an inconclusive call do not appear. Activity calls are given as the source filed them. No rule for the calls is given here.
Allowed answers: t = active, f = inactive

CCCCCCOC(=O)c1ccccc1
f
CCCCC(CC)COCC1CO1 (centres undefined)
t

QUERY: Answer briefly: the call reported for c1ccc(COCc2ccccc2)cc1 in this assay.
RESULT: f

QUERY: Answer briefly: the call reported for Nc1ccc(N=Nc2cccc(N=Nc3ccc(N)cc3N)c2)c(N)c1 in this assay.
RESULT: t

QUERY: Answer briefly: the call reported for CC[C@H](C)COC(=O)C=Cc1ccc(N=Cc2ccc(OC)cc2)cc1 in this assay.
RESULT: t

QUERY: Answer briefly: the call reported for O=C1Nc2ccc(Cl)cc2[C@@](C#CC2CC2)(C(F)(F)F)O1 in this assay.
RESULT: f

QUERY: Answer briefly: the call reported for c1ccsc1 in this assay.
RESULT: f

QUERY: Answer briefly: the call reported for CC(=O)OCCOCCOCCOC(C)=O in this assay.
RESULT: t

QUERY: Answer briefly: the call reported for CC1CC(OC(=O)c2ccccc2O)CC(C)(C)C1 (centres undefined) in this assay.
RESULT: f

QUERY: Answer briefly: the call reported for Cc1cc(Br)ccc1NC(=O)CCl in this assay.
RESULT: t

QUERY: Answer briefly: the call reported for CC(C)C(C)(C)C(C)(C)C(C)(C)S in this assay.
RESULT: f

QUERY: Answer briefly: the call reported for O=C(CO)CO in this assay.
RESULT: t

QUERY: Answer briefly: the call reported for O=C([O-])c1ccccn1.O=C([O-])c1ccccn1.O=C([O-])c1ccccn1.[Cr+3] in this assay.
RESULT: f

QUERY: Answer briefly: the call reported for CC(C)CCON=O in this assay.
RESULT: t

====

- System: S. typhimurium/E. coli reverse mutation, colony counts
- test.summary: Bacterial reverse mutation test (aka Ames test) summary data
Inconclusive results are not listed. Active and inactive are the calls of the source. How the calls were made is not given here.
Allowed answers: YES = active, NO = inactive

O=[N+]([O-])c1cc([N+](=O)[O-])c2ccccc2c1
YES
N#CCCCl
YES
CON
NO
NCCO
NO
O=[N+]([O-])C(Br)=Cc1ccccc1
YES

QUERY: Answer briefly: the call reported for CCCN(CCC)C(=O)CN in this assay.
RESULT: YES

QUERY: Answer briefly: the call reported for Nc1ccc(C(=O)O)cc1 in this assay.
RESULT: NO

QUERY: Answer briefly: the call reported for CC(C)OCC1CO1 (configuration not stated) in this assay.
RESULT: YES

QUERY: Answer briefly: the call reported for ClC(Cl)(Cl)c1ccccc1 in this assay.
RESULT: YES

QUERY: Answer briefly: the call reported for Nc1ccc([N+](=O)[O-])cc1N in this assay.
RESULT: YES

QUERY: Answer briefly: the call reported for O=C(O)c1ccc2c(c1)C(=O)OC2=O in this assay.
RESULT: NO

QUERY: Answer briefly: the call reported for CCCN(CCC)CCC in this assay.
RESULT: NO

QUERY: Answer briefly: the call reported for O=C(O)C(=O)O in this assay.
RESULT: NO

QUERY: Answer briefly: the call reported for C[C@](N)(Cc1ccc(O)c(O)c1)C(=O)O in this assay.
RESULT: NO

QUERY: Answer briefly: the call reported for Cc1ccc(N)c(N)c1 in this assay.
RESULT: YES

QUERY: Answer briefly: the call reported for O=CCCCC=O in this assay.
RESULT: YES

QUERY: Answer briefly: the call reported for CC(=O)OC/C=C(\C)CCC=C(C)C in this assay.
RESULT: NO

====

- Tested on: S. typhimurium/E. coli reverse mutation, colony counts
- test.summary: Bacterial reverse mutation test (aka Ames test) summary data;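 also: His-minus Salmonella and trp-minus E. coli WP2 uvrA pKM101 with or without liver S9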
Inconclusive results are not listed. Active and inactive are the calls of the source. The rule behind the calls is not given here.
Allowed answers: active, inactive

c1ccc2cc3ccccc3cc2c1
active
O=S1OCC2C(CO1)C1(Cl)C(Cl)=C(Cl)C2(Cl)C1(Cl)Cl (centres undefined)
inactive
c1ccc(C2CO2)cc1 (centres undefined)
active

QUERY: Answer briefly: the call reported for Nc1ccc(F)cc1F in this assay.
RESULT: active

QUERY: Answer briefly: the call reported for CC(O)COc1ccccc1 (centres undefined) in this assay.
RESULT: inactive

QUERY: Answer briefly: the call reported for Nc1cc([N+](=O)[O-])ccc1C(=O)O in this assay.
RESULT: active

QUERY: Answer briefly: the call reported for COc1ccc(C(c2ccc(OC)cc2)C(Cl)(Cl)Cl)cc1 in this assay.
RESULT: inactive

QUERY: Answer briefly: the call reported for Cc1cc(O)ccc1Cl in this assay.
RESULT: inactive

====

- System: S. typhimurium/E. coli reverse mutation, colony counts
- test.summary: Bacterial reverse mutation test (aka Ames test) summary data;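 also: His-minus Salmonella and trp-minus E. coli WP2 uvrA pKM101 with or without liver S9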
Inconclusive results are not listed. Calls of active or inactive are those of the source. No rule for the calls is given here.
Allowed answers: YES for active, NO for inactive

CCN(CC)c1cccc(O)c1
YES
NC(=S)NNC(N)=S
NO
CCN(CC)c1ccccc1
NO

QUERY: Answer briefly: the call reported for O=C(O)CSCC(=O)O in this assay.
RESULT: NO

QUERY: Answer briefly: the call reported for CC(C)(C)c1ccc(O)c(O)c1 in this assay.
RESULT: NO

QUERY: Answer briefly: the call reported for OCC(O)CCl (stereo unspecified) in this assay.
RESULT: YES

QUERY: Answer briefly: the call reported for CCCCC(CC)COC(=O)C(C#N)=C(c1ccccc1)c1ccccc1 (stereo unspecified) in this assay.
RESULT: NO

QUERY: Answer briefly: the call reported for O=P(OCCCl)(OCCCl)OCCCl in this assay.
RESULT: NO

QUERY: Answer briefly: the call reported for CC(C)Br in this assay.
RESULT: YES

====

- Test system: S. typhimurium/E. coli reverse mutation, colony counts
- test.summary: Bacterial reverse mutation test (aka Ames test) summary data;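 also: His-minus Salmonella and trp-minus E. coli WP2 uvrA pKM101 with or without liver S9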
Results filed as inconclusive are left out. Activity calls are given as the source filed them. No rule for the calls is given here.
Allowed answers: active, inactive

Recorded results for 5 compounds are shown here.
CC1=CC(=O)CC(C)(C)[C@@]1(O)/C=C/C(C)=C\C(=O)O
inactive
Nc1ccc(Cl)c(N)c1
active
CCCC=O
inactive
OCC(CBr)(CBr)CBr
active
CCCCCCOc1ccc(O)cc1
inactive

QUERY: Answer briefly: the call reported for CCCCC(CC)COC(=O)c1ccc(N(C)C)cc1 (configuration not stated) in this assay.
RESULT: inactive

QUERY: Answer briefly: the call reported for CN(C)CCN(Cc1ccccc1)c1ccccn1 in this assay.
RESULT: inactive

QUERY: Answer briefly: the call reported for ClC1=C(Cl)[C@]2(Cl)[C@H]3[C@H]([C@@H]4C=C[C@H]3C4)[C@@]1(Cl)C2(Cl)Cl in this assay.
RESULT: inactive

QUERY: Answer briefly: the call reported for O=C1CSC(=S)N1 in this assay.
RESULT: inactive

QUERY: Answer briefly: the call reported for OC1C2(Cl)C3(Cl)C4(Cl)C(Cl)(Cl)C5(Cl)C3(Cl)C1(Cl)C5(Cl)C24Cl (configuration not stated) in this assay.
RESULT: inactive

QUERY: Answer briefly: the call reported for Brc1c(Br)c(Br)c(Br)c(Br)c1Br in this assay.
RESULT: inactive

QUERY: Answer briefly: the call reported for CN(C)c1ccc(N=NS(=O)(=O)O)cc1 in this assay.
RESULT: active

QUERY: Answer briefly: the call reported for O=C(O)C(Cl)Cl in this assay.
RESULT: active

QUERY: Answer briefly: the call reported for COc1ccc(C=O)cc1OC in this assay.
RESULT: inactive

QUERY: Answer briefly: the call reported for Cc1ccc(Br)cc1 in this assay.
RESULT: inactive

====

- Test system: S. typhimurium/E. coli reverse mutation, colony counts
- test.summary: Bacterial reverse mutation test (aka Ames test) summary data;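 also: His-minus Salmonella and trp-minus E. coli WP2 uvrA pKM101 with or without liver S9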
Records with an inconclusive call do not appear. Calls of active or inactive are those of the source. No rule for the calls is given here.
Allowed answers: true (1) for active, false (0) for inactive

QUERY: Answer briefly: the call reported for O=C1C(Cl)=C(Cl)C(=O)C(Cl)=C1Cl in this assay.
RESULT: true (1)

QUERY: Answer briefly: the call reported for C=CC(=O)OCC in this assay.
RESULT: true (1)

QUERY: Answer briefly: the call reported for CN=C=O in this assay.
RESULT: false (0)

QUERY: Answer briefly: the call reported for CCN(CC)C(=O)c1cccc(C)c1 in this assay.
RESULT: false (0)

meta.source: PubChem BioAssay AID2202554
